- testedOn: human complement protein C3 (human, UniProt P01024 23-1663)
- Sequence (P01024 23-1663 limits assumed): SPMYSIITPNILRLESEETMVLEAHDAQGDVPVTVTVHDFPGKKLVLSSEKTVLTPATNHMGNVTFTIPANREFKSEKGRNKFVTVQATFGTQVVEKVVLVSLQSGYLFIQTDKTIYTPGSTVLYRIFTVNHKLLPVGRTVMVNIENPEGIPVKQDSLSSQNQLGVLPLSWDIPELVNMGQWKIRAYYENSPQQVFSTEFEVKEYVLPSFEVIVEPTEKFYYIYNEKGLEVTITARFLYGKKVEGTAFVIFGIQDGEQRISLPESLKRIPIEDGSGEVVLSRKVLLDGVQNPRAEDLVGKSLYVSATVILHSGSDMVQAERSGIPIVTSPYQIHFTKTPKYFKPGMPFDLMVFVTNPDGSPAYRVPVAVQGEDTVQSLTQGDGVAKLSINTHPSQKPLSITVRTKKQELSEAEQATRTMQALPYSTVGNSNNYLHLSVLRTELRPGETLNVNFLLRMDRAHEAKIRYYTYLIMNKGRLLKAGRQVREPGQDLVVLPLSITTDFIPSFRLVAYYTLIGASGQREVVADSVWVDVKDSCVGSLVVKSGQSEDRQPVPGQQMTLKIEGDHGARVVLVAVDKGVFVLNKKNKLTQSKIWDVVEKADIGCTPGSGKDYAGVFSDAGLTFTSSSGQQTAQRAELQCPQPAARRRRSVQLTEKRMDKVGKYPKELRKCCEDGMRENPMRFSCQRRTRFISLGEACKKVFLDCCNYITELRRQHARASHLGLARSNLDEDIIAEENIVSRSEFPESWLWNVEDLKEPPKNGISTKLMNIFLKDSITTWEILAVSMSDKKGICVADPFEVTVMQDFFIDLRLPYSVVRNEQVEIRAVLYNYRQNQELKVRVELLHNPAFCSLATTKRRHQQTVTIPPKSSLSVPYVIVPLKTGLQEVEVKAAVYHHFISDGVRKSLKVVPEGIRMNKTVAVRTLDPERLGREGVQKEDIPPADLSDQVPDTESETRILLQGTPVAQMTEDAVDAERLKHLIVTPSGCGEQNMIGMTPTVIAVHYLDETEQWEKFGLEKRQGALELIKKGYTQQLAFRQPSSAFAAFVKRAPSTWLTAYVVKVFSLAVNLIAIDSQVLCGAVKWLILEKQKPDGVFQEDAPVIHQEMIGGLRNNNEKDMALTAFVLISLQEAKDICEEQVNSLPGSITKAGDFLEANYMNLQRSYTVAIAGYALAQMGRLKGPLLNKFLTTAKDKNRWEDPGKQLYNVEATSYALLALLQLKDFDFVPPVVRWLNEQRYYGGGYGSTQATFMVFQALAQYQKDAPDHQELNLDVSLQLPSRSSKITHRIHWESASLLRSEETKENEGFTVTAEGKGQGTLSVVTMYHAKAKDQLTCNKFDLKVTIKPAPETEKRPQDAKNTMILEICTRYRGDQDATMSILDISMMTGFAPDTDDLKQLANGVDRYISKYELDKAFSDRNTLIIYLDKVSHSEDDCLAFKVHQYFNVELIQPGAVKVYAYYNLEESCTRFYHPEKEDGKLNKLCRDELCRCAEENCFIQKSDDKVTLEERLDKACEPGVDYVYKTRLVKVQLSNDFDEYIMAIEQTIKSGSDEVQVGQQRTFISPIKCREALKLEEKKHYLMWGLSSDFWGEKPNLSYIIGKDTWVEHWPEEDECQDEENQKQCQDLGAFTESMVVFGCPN
- assayProcedure: cell-based or functional assay
Bridge positions count the residues as written; N and C are the ends. Square brackets hold non-standard residues; d marks the D form. Trp(1-Me) = Cn1cc(C[C@H](N)C(=O)O)c2ccccc21
resultType: IC50 (assay not named in Table 7; preliminary C3b ELISA by paragraph 235) (µM)

- binder: "Ac-SSRCV[Trp(1-Me)]QDWGAHRCT-NH2 (disulfide 4-14; SMILES CC(=O)N[C@@H](CO)C(=O)N[C@@H](CO)C(=O)N[C@@H](CCCNC(=N)N)C(=O)N[C@H]1CSSC[C@@H](C(=O)N[C@H](C(N)=O)[C@@H](C)O)NC(=O)[C@H](CCCNC(=N)N)NC(=O)[C@H](Cc2c[nH]cn2)NC(=O)[C@H](C)NC(=O)CNC(=O)[C@H](Cc2c[nH]c3ccccc23)NC(=O)[C@H](CC(=O)O)NC(=O)[C@H](CCC(N)=O)NC(=O)[C@H](Cc2cn(C)c3ccccc23)NC(=O)[C@H](C(C)C)NC1=O) [Peptide VIII, Ac-SS-RCVme…-NH2]"
  unitText: "µM"
  value: 420
- binder: "Ac-RSRCV[Trp(1-Me)]QDWGAHRCT-NH2 (disulfide 4-14; SMILES CC(=O)N[C@@H](CCCNC(=N)N)C(=O)N[C@@H](CO)C(=O)N[C@@H](CCCNC(=N)N)C(=O)N[C@H]1CSSC[C@@H](C(=O)N[C@H](C(N)=O)[C@@H](C)O)NC(=O)[C@H](CCCNC(=N)N)NC(=O)[C@H](Cc2c[nH]cn2)NC(=O)[C@H](C)NC(=O)CNC(=O)[C@H](Cc2c[nH]c3ccccc23)NC(=O)[C@H](CC(=O)O)NC(=O)[C@H](CCC(N)=O)NC(=O)[C@H](Cc2cn(C)c3ccccc23)NC(=O)[C@H](C(C)C)NC1=O) [Peptide VII, Ac-RS-RCVme…-NH2]"
  unitText: "µM"
  value: 470
